# assayedTarget: T1, FLAG-tagged human APRIL (human, UniProt O75888 105-250, limits assumed)
# T1 construct: also called FLAG-tagged APRIL; FLAG-APRIL; not shown: FLAG tag
# T1 sequence (looked up): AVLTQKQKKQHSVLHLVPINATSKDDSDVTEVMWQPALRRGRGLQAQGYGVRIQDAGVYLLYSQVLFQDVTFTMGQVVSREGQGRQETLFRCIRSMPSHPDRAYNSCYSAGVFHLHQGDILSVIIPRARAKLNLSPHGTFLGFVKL
# measurementProtocol: FLAG-APRIL ELISA after 10 min at 65 °C, antibody at 1 µg/ml
readoutName: % residual binding after heat treatment (room temperature = 100%)
Output spec: scalar in %, unitless text.

Lookup: What does the record list as % residual binding after heat treatment (room temperature = 100%) for VH14.VL15 (antibody, human IgG4 S228P, kappa, V domains shown, Humanized IgG4 (S241P, Kabat) with human kappa, from HEK293T) VH: QVQLVQSGAEVKKPGASVKVSCKASGYTFTSYVMHWVRQAPGQGLEWMGYINPYNDAPKYNEKFKGRVTMTRDTSASTAYMELSSLRSDDTAVYYCARGLGYALYYAMDYWGQGTTVTVSS VL: DIVMTQSPSTLSASVGDRVTITCKASQNVGNNVAWYQQKPGKAPKLLISSASNRDSGVPSRFSGSGSGTEFTLTISSLQPDDFATYFCQQYNIYPFTFGQGTKLEIKR ?
Found: 45.2
